Source listed as ChEMBL document CHEMBL2029321.

- target-of-assay: cGMP-specific 3',5'-cyclic phosphodiesterase (Bos taurus, UniProt Q28156)
quantity-kind: IC50 (µM)

COc1ccc(OC)c(/C=C/C(=O)c2ccc(OC)cc2OC)c1 : 6
COc1cccc(/C=C/C(=O)c2c3c(c(OC)c4c2OCO4)CN(C)CC3)c1 : 6.2

1. COc1ccc(C(=O)/C=C/c2cc(OC)c(OC)cc2OC)c(OC)c1
2. COc1ccc(OC)c(C(=O)/C=C/c2ccc(OC)c(OC)c2)c1
Enquiry: Which one would you say has the larger IC50 value: 1 , or 2 ? State the label of the item chosen.
Return: 2

* * *

- target-of-assay: cGMP-specific 3',5'-cyclic phosphodiesterase (Homo sapiens)
- method-summary: Inhibition of PDE5A1 at 10 ug/mL
quantity-kind: inhibition (%)

Guide cases for inhibition, answers given:
COc1ccc(C(=O)/C=C/c2cccc(OC)c2OC)c(OC)c1 : 46.7
COc1ccc(C(=O)/C=C/c2ccc(OC)c(OC)c2)c(O)c1 : 23.8
COc1ccc(C(=O)/C=C/c2ccccc2OC)c(OC)c1 : 43.1
COc1ccc(OC)c(C(=O)/C=C/c2ccc(OC)c(OC)c2)c1 : 66.1

I. COc1ccc(OC)c(/C=C/C(=O)c2ccc(OC)c(OC)c2)c1
II. COC(=O)C[N+]1(C)CCc2c(c(OC)c3c(c2C(=O)/C=C/c2ccc(OC)cc2OC)OCO3)C1 (stereo unspecified)
Enquiry: Which one would you say has the larger inhibition value: I , or II ? State the label of the item chosen.
Return: I

* * *

- target-of-assay: Phosphodiesterase 4 (Homo sapiens, UniProt P27815+Q08499+Q07343+Q08493)
- method-summary: Inhibition of human neutrophil PDE4
- Type: protein assay
quantity-kind: IC50 (µM)

a. COc1ccc(/C=C/C(=O)c2c(OCc3ccccc3)cc(OC)c(OC)c2OC)cc1OC
b. COc1ccc(OC)c(C(=O)/C=C/c2ccc(OC)c(OC)c2)c1
c. COc1ccc(OC)c(/C=C/C(=O)c2ccc(OC)cc2OC)c1
Enquiry: Arrange the 3 compounds by rising IC50, starting with the smallest. Sort the labels as requested; that list is your answer.
Return: a, c, b

* * *

- target-of-assay: cGMP-specific 3',5'-cyclic phosphodiesterase (Homo sapiens) (UniProt O76074)
- method-summary: Inhibition of PDE5A1 at 10 ug/mL
quantity-kind: inhibition (%)

Guide cases for inhibition, answers given:
COc1ccc(/C=C/C(=O)c2cc(Cl)ccc2OC)cc1OC : 3.5
COc1ccc(/C=C/C(=O)c2c3c(c(OC)c4c2OCO4)CN(C)CC3)c(OC)c1OC : 37.1
COC(=O)C[N+]1(C)CCc2c(cc3c(c2C(=O)/C=C/c2cc(OC)ccc2OC)OCO3)C1 (stereo not drawn) : 7.2
COc1ccc(/C=C/C(=O)c2c(O)cc(OC)c(OC)c2OC)c(OC)c1 : 35.7

P. COc1ccc(OC)c(C(=O)/C=C/c2cc(OC)c(C)cc2OC)c1
Q. COc1ccc(OC)c(/C=C/C(=O)c2ccc(Cl)cc2)c1
Enquiry: Select one. Lower inhibition: P or Q State the label of the item chosen.
Return: Q

a. COc1ccc(/C=C/C(=O)c2cc(OC)ccc2OC)cc1
b. COc1ccc(/C=C/C(=O)c2c(OCc3ccccc3)cc(OC)c(OC)c2OC)cc1OC
Enquiry: Select one. Lower inhibition: a or b State the label of the item chosen.
Return: a

* * *

- target-of-assay: cGMP-specific 3',5'-cyclic phosphodiesterase (Homo sapiens)
- method-summary: Inhibition of PDE5A1 at 10 ug/mL
quantity-kind: inhibition (%)

Guide cases for inhibition, answers given:
COc1ccc(OC)c(/C=C/C(=O)c2ccc(OC)cc2OC)c1 : 58.7
COc1ccc(OC)c(/C=C/C(=O)c2cc(OC)c(OC)cc2CCNC(C)=O)c1 : 47.4
COc1ccc(C(=O)/C=C/c2cc(OC)c(OC)cc2OC)c(OC)c1 : 65.9
COc1ccc(/C=C/C(=O)c2cc(OC)c(OC)cc2CCNC(C)=O)c(OC)c1 : 45.5

A. COc1c2c(c(C(=O)/C=C/c3ccc(Cl)cc3Cl)c3c1OCO3)CCN(C)C2
B. COc1ccccc1/C=C/C(=O)c1cc(OC)c(OC)cc1CCNC(C)=O
C. COc1cccc(/C=C/C(=O)c2c3c(c(OC)c4c2OCO4)CN(C)CC3)c1
D. COc1ccc(/C=C/C(=O)c2c3c(c(OC)c4c2OCO4)CN(C)CC3)c(OC)c1
Enquiry: Rank order required: inhibition, descending. Sort the labels as requested; that list is your answer.
Return: C, D, B, A

1. COc1ccc(OC)c(/C=C/C(=O)c2c3c(c(OC)c4c2OCO4)CN(C)CC3)c1
2. COc1ccc(OC)c(/C=C/C(=O)c2ccc(SC)cc2)c1
Enquiry: Select one. Lower inhibition: 1 or 2 State the label of the item chosen.
Return: 2
(2: 26.6%, 1: 45.5%)

1. COc1ccc(C(=O)/C=C/c2cc(Cl)ccc2Cl)c(OC)c1
2. COc1ccc(OC)c(/C=C/C(=O)c2cc(OC)c(C)cc2OC)c1
Enquiry: Select one. Lower inhibition: 1 or 2 State the label of the item chosen.
Return: 2
(2: 20.2%, 1: 39.5%)

I. COc1cc(CCNC(C)=O)c(C(=O)/C=C/c2cccc(OC)c2OC)cc1OC
II. COc1cccc(/C=C/C(=O)c2c3c(c(OC)c4c2OCO4)CN(C)CC3)c1OC
Enquiry: Which one would you say has the larger inhibition value: I , or II ? State the label of the item chosen.
Return: II
(II: 43.9%, I: 27.7%)
